Source: PubChem BioAssay (NCI)

system: OVCAR-5 ovarian; experiment: NCI tumour cell line growth inhibition, 48 h
# TGI per entry

{"compound": "C[C@H]1C(=O)c2c(cc(O)c(C3OC(CO)C(O)C(O)C3O)c2O)OC1c1ccc(O)c(O)c1 (stereo not given in full)", "targetDesc": "OVCAR-5 ovarian", "readoutQualifier": ">", "TGI (µM)": 100}
{"compound": "Cc1nnc(N/N=C(/C(=O)C(C#N)c2ccc(Cl)cc2)C(C#N)c2ccc(Cl)cc2)n1N (stereo not given)", "targetDesc": "OVCAR-5 ovarian", "readoutQualifier": "=", "TGI (µM)": 33.6}
{"compound": "CC(=O)Nc1ccc(S(=O)(=O)NN(C)S(=O)(=O)c2ccc(C)cc2)cc1", "targetDesc": "OVCAR-5 ovarian", "readoutQualifier": ">", "TGI (µM)": 100}
{"compound": "CCC(=O)C(CCN1CCC(N2C(=O)C(CCC#N)c3ccccc32)CC1)(c1ccccc1)c1ccccc1 (stereo not given)", "targetDesc": "OVCAR-5 ovarian", "readoutQualifier": "=", "TGI (µM)": 67.7}
{"compound": "Cc1cc2c(c(=O)o1)C1=S(SC(c3ccccc3)=C1)S2 (stereo not given)", "targetDesc": "OVCAR-5 ovarian", "readoutQualifier": ">", "TGI (µM)": 100}

====

Listing of recorded GI50 by entry.
system: K-562 leukemia; test: NCI tumour cell line growth inhibition, 48 h

{"molecule": "Nc1nc(-c2ccc(Cl)cc2)nc2c1sc(=S)n2-c1ccccc1", "GI50": "4.75 µM"}
{"molecule": "CN1CCCC1c1cccnc1.O=C(O)c1ccccc1O.O=C([O-])c1ccccc1[OH2+].O=C([O-])c1ccccc1[OH2+].[Mn+2] (configuration not stated)", "GI50": "> 100 µM"}
{"molecule": "CC(=O)N(O)c1ccc(/C=C/c2ccccc2)cc1", "GI50": "7.39 µM"}
{"molecule": "O=S(=O)(O)c1ccc2cc3nn(-c4ccc(/C=C/c5ccc(-n6nc7cc8ccc(S(=O)(=O)O)cc8cc7n6)cc5S(=O)(=O)O)c(S(=O)(=O)O)c4)nc3cc2c1", "GI50": "61 µM"}
{"molecule": "O=S(=O)(NCCCNc1cc(-c2cn(-c3ccccc3)nc2-c2cccc(O)c2)ccn1)c1ccc(F)cc1", "GI50": "2.4 µM"}
{"molecule": "NCc1ccc(-c2nc(-c3ccc(Cl)c(O)c3)c(-c3ccncc3)[nH]2)cc1", "GI50": "> 25 µM"}
{"molecule": "C=CCN(CC=C)C(=O)[C@H](CC)[C@@H]1CC[C@@H](C)[C@@H]([C@H](C)[C@@H](O)[C@@H](C)C(=O)[C@H](CC)C2O[C@]3(C=C[C@@H](O)[C@]4(CC[C@@](C)([C@H]5CC[C@](O)(CC)[C@H](C)O5)O4)O3)[C@H](C)C[C@@H]2C)O1 (some centres not stated)", "GI50": "2.64 µM"}

====

Measured GI50, listed per entry.
tested on: COLO 205 colon; test: NCI tumour cell line growth inhibition, 48 h

{"compound": "CCN(Cc1ccc(F)cc1)c1ccc(CO)c(C(F)(F)F)c1", "GI50": "14.4 µM"}
{"compound": "C=CCN(CC=C)C(=O)[C@H](CC)[C@@H]1CC[C@@H](C)[C@@H]([C@H](C)[C@@H](O)[C@@H](C)C(=O)[C@H](CC)C2O[C@]3(C=C[C@@H](O)[C@]4(CC[C@@](C)([C@H]5CC[C@](O)(CC)[C@H](C)O5)O4)O3)[C@H](C)C[C@@H]2C)O1 (some centres undefined)", "GI50": "2.56 µM"}
{"compound": "N#Cc1c(NC(=O)c2ccccc2F)sc2c1CCCC2", "GI50": "22.2 µM"}
{"compound": "N#Cc1cccc(Nc2ncc(-c3ccccc3)o2)c1", "GI50": "14.8 µM"}
